Sourced from ChEMBL document CHEMBL5620397

Experiment: Metabolic stability in human liver microsomes assessed as substrate remaining preincubated for 5 mins followed by NADPH addition and measured upto 30 mins by LC-MS/MS assay
Format: ADME, Microsome
Conditions: time < 35 min, read-out: Stability
Measured remaining at 0.5 h, listed per entry.
Field: numeric (%). Do not append units.

Solved entries (count: 3):
{"columns": ["Structure String", "Scale Unit", "remaining at 0.5 h"],
 "data": [
  ["CCCC[C@@H](C(=O)O)N1C(=O)/C(=C/c2ccc(-c3cccc(C(F)(F)F)c3)cc2)SC1=S", "%", 95.9],
  ["CCCC[C@@H](C(=O)O)N1C(=O)/C(=C/c2ccc(-c3ccc(F)c(C(F)(F)F)c3)cc2)SC1=S", "%", 96.9],
  ["O=C(O)[C@H](C1CCCCC1)N1C(=O)/C(=C/c2ccc(-c3ccc(F)c(C(F)(F)F)c3)cc2)SC1=S", "%", 101]
]}

Let's switch to this compound now.
-- ask Look up remaining at 0.5 h: O=C(O)[C@H](C1CCCCC1)N1C(=O)/C(=C/c2ccc(-c3cccc(C(F)(F)F)c3)cc2)SC1=S
-- reply 101
